Target: Substance-K receptor (Homo sapiens, UniProt P21452)
Sequence (P21452 whole entry): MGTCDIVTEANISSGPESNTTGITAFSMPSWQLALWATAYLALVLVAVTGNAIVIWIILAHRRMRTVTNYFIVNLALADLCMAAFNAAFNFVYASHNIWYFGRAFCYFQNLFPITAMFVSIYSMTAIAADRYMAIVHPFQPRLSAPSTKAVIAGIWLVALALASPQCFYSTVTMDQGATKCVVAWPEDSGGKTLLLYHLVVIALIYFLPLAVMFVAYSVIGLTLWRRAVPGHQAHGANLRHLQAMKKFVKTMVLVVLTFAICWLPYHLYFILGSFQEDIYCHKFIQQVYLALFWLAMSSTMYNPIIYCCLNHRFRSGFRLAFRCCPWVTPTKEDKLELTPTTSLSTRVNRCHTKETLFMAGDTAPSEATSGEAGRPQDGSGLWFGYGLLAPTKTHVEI
*1 amine or outer side, *2 acyl side, *3 side chain or, on linkers, in order; H or OH if unused. Where a SMILES comes first, the peptide text is derived from it. Bridges are numbered along the chain shown (N, C = ends). [ ]: non-standard residue; d: D form. Suc = O=C(CCC(=O)[*:2])[*:1]; Dap = NC[C@H](N)C(=O)O
ASSAY_ENDPOINT: pKi
Expect pKi as a plain number equal to -log10 of the molar concentration.

Example results:
[[record]]
molecule = "N[C@H]1CC(=O)NC[C@@H](Cc2ccccc2)NC(=O)[C@H](Cc2ccccc2)NC(=O)[C@H](Cc2c[nH]c3ccccc23)NC1=O"
recorded_number = 8.50

[[record]]
molecule = "O=C1C[C@H](NC(=O)[C@]2(O)C[C@@H](O)[C@@H](O)[C@H](O)C2)C(=O)NC[C@@H](Cc2ccccc2)NC(=O)[C@H](Cc2ccccc2)NC(=O)[C@H](Cc2c[nH]c3ccccc23)N1"
recorded_number = 8.20

[[record]]
molecule = "O=C1CCCNC(=O)[C@@H](Cc2ccccc2)NC(=O)[C@H](Cc2ccccc2)NC(=O)[C@H](Cc2c[nH]c3ccccc23)N1"
recorded_number = 6.50

[[record]]
molecule = "NC(=O)[C@@H]1CNC(=O)CCC(=O)N[C@@H](Cc2c[nH]c3ccccc23)C(=O)N[C@@H](Cc2ccccc2)C(=O)N1 (Trp-Phe-[Dap]-NH2; linker N-3 via Suc)"
recorded_number = 5.40

[[record]]
molecule = "O=C1CCC(=O)N[C@@H](Cc2c[nH]c3ccccc23)C(=O)N[C@@H](Cc2ccccc2)C(=O)N[C@H](Cc2c[nH]c3ccccc23)CN1"
recorded_number = 8.50


Shifting focus to the molecule that follows.
Requested read-out pKi, target or system Substance-K receptor (Homo sapiens, UniProt P21452), entry C=CCOC(=O)[C@@H]1CC(=O)N[C@@H](Cc2c[nH]c3ccccc23)C(=O)N[C@@H](Cc2ccccc2)C(=O)N[C@H](Cc2ccc(Cl)c(Cl)c2)C(=O)N1
6.50

Entry source: ChEMBL document CHEMBL1135528
